So I've got AC50 readings for Cytochrome P450 3A4 (Homo sapiens, UniProt P08684), take a look.

These recorded examples may help you get a feel for the data.
1. COc1ccc(COC(=O)N/N=C2/C[C@@H](O)[C@@H](O)[C@@H]3[C@@H]4C(=O)N([C@@H](C)c5ccccc5)C(=O)[C@H]4CC[C@@H]23)cc1 ... 3.98 µM (inconclusive)
2. Cc1cc(C)n(-c2ccc(C(=O)Nc3cc(C(F)(F)F)ccc3N3CCOCC3)cc2)n1 ... 14.1 µM (inconclusive)

Find AC50 (Cytochrome P450 3A4 (Homo sapiens, UniProt P08684)) for the entry COC(=O)c1cccc(NC(=O)Nc2ccc(Cl)c(Cl)c2)c1
22.4 µM (inconclusive)
